Catalogue of binders with associated Kd
Molecular target: human IL-6 (human, UniProt P05231 30-212)
Sequence (P05231 30-212 limits assumed): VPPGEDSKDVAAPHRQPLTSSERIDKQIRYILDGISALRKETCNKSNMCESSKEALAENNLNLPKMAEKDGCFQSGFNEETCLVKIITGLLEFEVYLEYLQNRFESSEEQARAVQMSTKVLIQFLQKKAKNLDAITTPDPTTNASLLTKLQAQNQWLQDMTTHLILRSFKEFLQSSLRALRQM
Experiment: SPR (Biacore), supernatant antibody on Protein A chip, IL-6 flowed, 37 C
Report as a plain number; the unit nM is understood.

Use these answered entries as a reference point.
binder	Kd [nM]
anti-IL-6 antibody, heavy chain T63S, G66D / light chain M32L, M50D, N52S, M88Q (antibody, human IgG1, V domains shown, Human IgG1) VH: EVQLVESGGGLVQPGGSLRLSCAASGFTFSPFAMSWVRQAPGKGLEWVAKISPGGSWTYYSDSVTDRFTFSLDTSKSTAYLQMNSLRAEDTAVYYCARQLWGYYALDIWGQGTLVTVSS VL: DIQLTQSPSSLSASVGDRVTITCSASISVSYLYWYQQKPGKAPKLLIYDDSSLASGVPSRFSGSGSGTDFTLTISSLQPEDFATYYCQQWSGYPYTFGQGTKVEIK	0.278
anti-IL-6 antibody, heavy chain T63K, G66D / light chain M32L, M50D, N52S, M88Q (antibody, human IgG1, V domains shown, Human IgG1) VH: EVQLVESGGGLVQPGGSLRLSCAASGFTFSPFAMSWVRQAPGKGLEWVAKISPGGSWTYYSDKVTDRFTFSLDTSKSTAYLQMNSLRAEDTAVYYCARQLWGYYALDIWGQGTLVTVSS VL: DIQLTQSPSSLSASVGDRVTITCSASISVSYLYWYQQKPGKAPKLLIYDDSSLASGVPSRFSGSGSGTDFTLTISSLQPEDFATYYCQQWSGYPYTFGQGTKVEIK	0.246

Now look at this one.
**Query** Which Kd is reported for this binder? anti-IL-6 antibody, heavy chain I51Q, G66D / light chain M32L, M50D, N52S, M88Q (antibody, human IgG1, V domains shown, Human IgG1) VH: EVQLVESGGGLVQPGGSLRLSCAASGFTFSPFAMSWVRQAPGKGLEWVAKQSPGGSWTYYSDTVTDRFTFSLDTSKSTAYLQMNSLRAEDTAVYYCARQLWGYYALDIWGQGTLVTVSS VL: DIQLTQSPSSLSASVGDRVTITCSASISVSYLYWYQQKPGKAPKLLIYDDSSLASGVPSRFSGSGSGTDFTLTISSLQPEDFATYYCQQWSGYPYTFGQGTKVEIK
**Result** 0.575
